- experimental.system: T1, p32 (Homo sapiens, UniProt Q07021)
- T1 chain: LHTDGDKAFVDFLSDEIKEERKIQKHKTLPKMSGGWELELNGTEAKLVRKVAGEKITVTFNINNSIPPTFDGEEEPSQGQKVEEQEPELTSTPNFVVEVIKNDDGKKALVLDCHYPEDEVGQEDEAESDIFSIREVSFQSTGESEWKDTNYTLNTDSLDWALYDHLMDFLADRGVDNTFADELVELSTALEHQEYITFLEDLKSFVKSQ
- assay.protocol: SPR
Bridges are numbered along the chain shown (N, C = ends). Where no end group is shown, it is not given here.
endpoint: pKd
Convention used: pKd is expressed as -log10 of the molar concentration.

[in] Given the entry CGNKRTRGC (disulfide 1-9) [Lyp-1] , report its measured pKd.
[out] 7.98
